Target: T1, human LRRC15 extracellular domain with C-terminal His tag (human, UniProt Q8TF66 22-538)
T1 construct: Recombinant, made in HEK293; the entry holds the extracellular domain and the His tag; SPR analyte; also called TPP-1545; hLRRC15 CT-His
T1 sequence: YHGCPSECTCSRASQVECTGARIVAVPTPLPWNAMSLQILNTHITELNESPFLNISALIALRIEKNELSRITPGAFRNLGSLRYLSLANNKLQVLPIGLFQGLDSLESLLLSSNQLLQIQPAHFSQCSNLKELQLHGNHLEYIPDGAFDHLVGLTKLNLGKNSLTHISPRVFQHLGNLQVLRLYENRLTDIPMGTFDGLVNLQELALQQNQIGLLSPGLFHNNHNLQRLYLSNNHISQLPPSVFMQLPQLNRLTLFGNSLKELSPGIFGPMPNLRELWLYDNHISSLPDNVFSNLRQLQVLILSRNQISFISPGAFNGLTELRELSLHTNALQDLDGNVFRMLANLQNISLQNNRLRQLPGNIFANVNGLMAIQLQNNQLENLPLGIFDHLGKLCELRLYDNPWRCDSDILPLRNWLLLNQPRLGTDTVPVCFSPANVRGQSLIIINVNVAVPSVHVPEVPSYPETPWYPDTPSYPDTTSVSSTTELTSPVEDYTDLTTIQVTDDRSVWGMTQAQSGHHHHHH
Experiment: SPR Biacore T200, antibody captured, LRRC15 analyte, 20°C
pKd: −log10 of the molar value.
quantity.name: pKd

binder="TPP-17078 (antibody, human IgG1, kappa, V domains shown, also called 438H-M308-H05-hIgGkappa) VH: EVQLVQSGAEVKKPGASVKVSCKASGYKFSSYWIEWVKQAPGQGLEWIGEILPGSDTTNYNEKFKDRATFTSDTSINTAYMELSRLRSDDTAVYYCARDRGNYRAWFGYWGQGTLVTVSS VL: DIQMTQSPSSLSASVGDRVTITCRASQSISSYLNWYQQKPGGAPKFLIYYASSLQSGVPSRFSGSGSGTDYTLTISSLQPEDFATYYCQQGFSLPWTFGGGTKVEIKR" quantity_name=pKd experimental_value=9.06
binder="TPP-14392 (antibody, human IgG1, kappa, V domains shown, also called 13612-rec05-hIgG1Kappa) VH: EVQLLESGGGLVQPGGSLRLSCAASGFTFSGYMMSWVRQAPGKGLEWVSGIYPSPGYTYYADSVKGRFTISRDNSKNTLYLQMNSLRAEDTAVYYCAREKASDLSGSYSEALDYWGQGTLVTVSS VL: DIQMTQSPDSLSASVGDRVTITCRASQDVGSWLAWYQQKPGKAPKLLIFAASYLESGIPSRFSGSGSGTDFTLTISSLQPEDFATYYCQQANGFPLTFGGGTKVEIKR" quantity_name=pKd experimental_value=8.54
binder="TPP-17074 (antibody, human IgG1, kappa, V domains shown, also called 438H-M161-K22-hIgG1) VH: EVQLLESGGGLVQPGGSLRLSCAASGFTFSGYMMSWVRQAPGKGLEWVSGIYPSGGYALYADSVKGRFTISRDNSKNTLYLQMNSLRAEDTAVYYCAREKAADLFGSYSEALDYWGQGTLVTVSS VL: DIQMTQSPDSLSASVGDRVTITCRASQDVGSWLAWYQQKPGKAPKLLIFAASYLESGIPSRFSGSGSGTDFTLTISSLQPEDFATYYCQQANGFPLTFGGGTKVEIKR" quantity_name=pKd experimental_value=9.85
binder="TPP-1633 (antibody, human IgG1, kappa, V domains shown, also called 060E-M016-G14-hIgG1) VH: EVQLLESGGGLVQPGGSLRLSCAASGFTFSGYMMQWVRQAPGKGLEWVSGIYPSGGYTNYADSVKGRFTISRDNSKNTLYLQMNSLRAEDTATYYCAREKASDLSGSYSEALDYWGQGTLVTVSS VL: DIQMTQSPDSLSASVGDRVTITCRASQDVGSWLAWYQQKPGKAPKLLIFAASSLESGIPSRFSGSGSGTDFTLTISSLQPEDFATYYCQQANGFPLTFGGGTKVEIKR" quantity_name=pKd experimental_value=7.10
binder="TPP-14389 (antibody, human IgG1, kappa, V domains shown, also called 13612-rec02-hIgG1Kappa) VH: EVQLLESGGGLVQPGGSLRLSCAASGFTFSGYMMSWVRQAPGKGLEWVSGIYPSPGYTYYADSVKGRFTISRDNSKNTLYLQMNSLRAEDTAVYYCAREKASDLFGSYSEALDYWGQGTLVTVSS VL: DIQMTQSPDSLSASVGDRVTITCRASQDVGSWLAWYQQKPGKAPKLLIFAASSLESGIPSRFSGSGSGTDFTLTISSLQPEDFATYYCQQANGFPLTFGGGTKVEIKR" quantity_name=pKd experimental_value=8.70
binder="TPP-17421 (antibody, human IgG1, kappa, V domains shown, also called 438H-M306-C11-hIgG1Kappa) VH: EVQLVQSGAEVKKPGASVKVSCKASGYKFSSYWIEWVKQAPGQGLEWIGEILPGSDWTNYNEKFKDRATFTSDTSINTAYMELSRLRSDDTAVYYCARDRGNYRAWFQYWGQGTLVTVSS VL: DIQMTQSPSSLSASVGDRVTITCRASQSISSYLNWYQQKPGGAPKFLIYYASSLQSGVPSRFSGSGSGTDYTLTISSLQPEDFATYYCQQGLELPWTFGGGTKVEIKR" quantity_name=pKd experimental_value=9.09
